# method-notes: Selectivity index, ratio of IC50 for mouse peritoneal macrophages to IC50 for Leishmania amazonensis Josefa amastigotes
readout-label: Ratio IC50
Reply with just the number.

Some molecules with known Ratio IC50 results, for comparison:
CCOC(=O)[C@@H]1C=C(C)[C@@H](O)[C@H]2OC/C(=C\C=C\[C@H](C)[C@H](O[C@H]3C[C@H](OC)[C@@H](O[C@H]4C[C@H](OC)[C@@H](O)[C@H](C)O4)[C@H](C)O3)/C(C)=C/C[C@@H]3C[C@H](O)C[C@]4(CC[C@H](C)[C@@H]([C@@H](C)CC)O4)O3)[C@]21O: 6.6
CC[C@H](C)[C@H]1O[C@]2(CC[C@@H]1C)C[C@@H]1C[C@@H](C/C=C(\C)[C@@H](O[C@H]3C[C@H](OC)[C@@H](O[C@H]4C[C@H](OC)[C@@H](O)[C@H](C)O4)[C@H](C)O3)[C@@H](C)/C=C/C=C3\CO[C@@H]4[C@H](O)[C@@H](C)C=C(C(=O)O1)[C@]34O)O2: 18.2
CC[C@H](C)[C@H]1O[C@]2(CC[C@@H]1C)C[C@@H](O)C[C@@H](C/C=C(\C)[C@@H](O[C@H]1C[C@H](OC)[C@@H](O[C@H]3C[C@H](OC)[C@@H](O)[C@H](C)O3)[C@H](C)O1)[C@@H](C)CO)O2: 4.2
CC[C@H](C)[C@H]1O[C@]2(CC[C@@H]1C)C[C@@H](O)C[C@@H](C/C=C(\C)[C@@H](O[C@H]1C[C@H](OC)[C@@H](O)[C@H](C)O1)[C@@H](C)CO)O2 [NORTHERN MONOSACCHARIDE]: 0.8

For the molecule "CCOC(=O)C1=C[C@H](C)[C@@H](O)[C@H]2OC/C(=C\C=C\[C@H](C)[C@H](O[C@H]3C[C@H](OC)[C@@H](O[C@H]4C[C@H](OC)[C@@H](O)[C@H](C)O4)[C@H](C)O3)/C(C)=C/C[C@@H]3C[C@H](O)C[C@]4(CC[C@H](C)[C@@H]([C@@H](C)CC)O4)O3)[C@@]12O" , give its measured Ratio IC50 value.
5.8

Source: ChEMBL document CHEMBL1140890
